From: patent US20200055939A1

Measured % Inhibition, listed per entry.
target-of-assay: T1, MICA*008 on MEL-JUSO cells (human, UniProt Q29983 24-317); further: test concentration or dose not given here
T1 chain: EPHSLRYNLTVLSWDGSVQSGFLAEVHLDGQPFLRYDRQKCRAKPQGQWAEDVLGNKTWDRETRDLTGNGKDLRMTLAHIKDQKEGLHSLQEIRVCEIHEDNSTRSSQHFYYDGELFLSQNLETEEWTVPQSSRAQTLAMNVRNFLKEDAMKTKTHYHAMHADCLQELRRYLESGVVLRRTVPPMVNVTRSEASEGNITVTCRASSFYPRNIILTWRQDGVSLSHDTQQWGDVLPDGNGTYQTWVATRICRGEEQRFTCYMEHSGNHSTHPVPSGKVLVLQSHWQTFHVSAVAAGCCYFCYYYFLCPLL
protocol-details: cell-based or functional assay
Field: numeric (%). Do not append units.

Worked examples, 2 binders total:
{"binder": "13A9v6 (antibody, IgG1, V domains shown, humanized variant of 13A9) VH: EVQLVQSGAEVKKPGSSVKVSCKASGYAFTNYLIEWVRQAPGQGLEWIGAINPGSGATNYNEKFKDRATLTADKSTNTAYMELSSLRSEDTAVYFCARFLGNYFDNWGQGTLVTVSS VL: DIQMTQSPSSLSASVGDRVTITCRASGNIHSYLAWYQQKPGKSPKLLVYYAETLADGVPSRFSGSGSGTDYTLTISSLQPEDFATYFCQQFWTTPYTFGQGTKVEIK", "% Inhibition / %": 8}
{"binder": "1D5v22 (antibody, IgG1, V domains shown, humanized variant of 1D5) VH: EIQLVQSGAEVKKPGASVKVSCKASGYAFTSQNIYWVRQAPGQGLEWIGYIEPYNVVPMYNPKFKGRATLTRDKSTSTAYLELSSLRSEDTAVYYCARSGSSNFDYWGQGTLVTVSS VL: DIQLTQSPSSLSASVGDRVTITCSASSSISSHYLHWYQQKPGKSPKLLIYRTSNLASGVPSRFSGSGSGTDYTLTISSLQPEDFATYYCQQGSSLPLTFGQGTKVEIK", "% Inhibition / %": 57}

Could you now look at the following binder, please?
Which % Inhibition is reported for this binder? 1D5v23 (antibody, IgG1, V domains shown, humanized variant of 1D5) VH: EIQLVQSGAEVKKPGASVKVSCKASGYAFTSQNIYWVRQAPGQGLEWIGYIEPYNVVPMYNPKFKGRATLTVDTSTSTAYLELSSLRSEDTAVYYCARSGSSNFDYWGQGTLVTVSS VL: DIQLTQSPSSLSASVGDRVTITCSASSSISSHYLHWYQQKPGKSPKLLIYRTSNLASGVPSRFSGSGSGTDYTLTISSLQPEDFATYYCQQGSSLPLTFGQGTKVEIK
63
